IC50 values by entry
TESTED TARGET: T1, human IL-12 (human, UniProt P29459 23-219; P29460 23-328)
T1 construct: also called human IL-12 p70 heterodimer; IL-12 p75
T1 sequence (looked up) 1: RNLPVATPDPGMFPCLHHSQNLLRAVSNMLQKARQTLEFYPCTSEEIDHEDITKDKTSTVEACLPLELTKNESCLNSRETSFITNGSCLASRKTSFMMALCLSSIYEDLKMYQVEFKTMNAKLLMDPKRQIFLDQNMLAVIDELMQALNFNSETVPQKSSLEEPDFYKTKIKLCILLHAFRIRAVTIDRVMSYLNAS
T1 sequence (looked up) 2: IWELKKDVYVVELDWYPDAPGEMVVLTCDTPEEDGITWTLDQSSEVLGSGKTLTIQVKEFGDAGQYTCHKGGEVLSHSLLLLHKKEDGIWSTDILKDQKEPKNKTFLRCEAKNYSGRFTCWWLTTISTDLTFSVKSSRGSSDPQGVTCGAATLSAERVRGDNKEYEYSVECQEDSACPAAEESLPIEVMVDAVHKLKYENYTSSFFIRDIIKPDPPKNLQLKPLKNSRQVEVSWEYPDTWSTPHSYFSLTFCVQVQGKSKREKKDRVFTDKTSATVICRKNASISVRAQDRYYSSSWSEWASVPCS
ASSAY PROTOCOL: competition ELISA on coated human IL-12; competitor of biotinylated ChDD2
Lab book: enter the figure in µg/mL, no units written.

Some solved entries appear below for comparison.
[[record]]
binder = "chicken-human chimeric anti-IL-12 antibody DD2 (antibody, V domains shown, made in Sp2/0; also called ChDD2; chimeric DD2) VH: AVTLDESGGGLQTPGGGLSLVCKASGFDFSNYQLQWVRQAPGKGLEWVGGIGSSGSSTYYGAAVKGRATISRDNGQSTVRLQLNNLRAEDTGTYYCTRGVSPYSCWYAGRTSYTCHAYTAGSIDAWGHGTEVIVSS VL: ALTQPASVSANPGETVKITCPGGGIYAGRYYGYGWFQQKSPGSAPVTVIYSNDKRPSDIPSRFSGSASGSTATLTITGVQADDEAVYFCGSHDSNVGVFGAGTTLTVL"
result = 4

[[record]]
binder = "HuDD2 Vλ A66S mutant (antibody, IgG1, V domains shown, IgG1/λ as HuDD2; Kabat numbering) VH: EVQLVESGGGLVQPGGSLRLSCAASGFDFSNYQLQWVRQAPGKGLEWVGGIGSSGSSTYYGAAVKGRATISRDNAKNSVYLQMNSLRAEDTAVYYCTRGVSPYSCWYAGRTSYTCHAYTAGSIDAWGQGTLVTVSS VL: SSELTQDPAVSVALGQTVRITCPGGGIYAGRYYGYGWFQQKPGQAPVTVIYSNDKRPSDIPSRFSGSSSGSTASLTITGAQAEDEADYYCGSHDSNVGVFGGGTKLTVL"
result = 3.4

[[record]]
binder = "HuDD2 Vλ T46L mutant (antibody, IgG1, V domains shown, IgG1/λ as HuDD2; Kabat numbering) VH: EVQLVESGGGLVQPGGSLRLSCAASGFDFSNYQLQWVRQAPGKGLEWVGGIGSSGSSTYYGAAVKGRATISRDNAKNSVYLQMNSLRAEDTAVYYCTRGVSPYSCWYAGRTSYTCHAYTAGSIDAWGQGTLVTVSS VL: SSELTQDPAVSVALGQTVRITCPGGGIYAGRYYGYGWFQQKPGQAPVLVIYSNDKRPSDIPSRFSGSASGSTASLTITGAQAEDEADYYCGSHDSNVGVFGGGTKLTVL"
result = 16.1

[[record]]
binder = "HuDD2 VH V78L mutant (antibody, IgG1, name in Kabat numbering, V domains shown, IgG1/λ as HuDD2; H78 (Kabat) is the position named as the one tested; also called V79L) VH: EVQLVESGGGLVQPGGSLRLSCAASGFDFSNYQLQWVRQAPGKGLEWVGGIGSSGSSTYYGAAVKGRATISRDNAKNSLYLQMNSLRAEDTAVYYCTRGVSPYSCWYAGRTSYTCHAYTAGSIDAWGQGTLVTVSS VL: SSELTQDPAVSVALGQTVRITCPGGGIYAGRYYGYGWFQQKPGQAPVTVIYSNDKRPSDIPSRFSGSASGSTASLTITGAQAEDEADYYCGSHDSNVGVFGGGTKLTVL"
result = 7

[[record]]
binder = "HuDD2 VH T93A mutant (antibody, IgG1, name in Kabat numbering, V domains shown, IgG1/λ as HuDD2; Kabat numbering) VH: EVQLVESGGGLVQPGGSLRLSCAASGFDFSNYQLQWVRQAPGKGLEWVGGIGSSGSSTYYGAAVKGRATISRDNAKNSVYLQMNSLRAEDTAVYYCARGVSPYSCWYAGRTSYTCHAYTAGSIDAWGQGTLVTVSS VL: SSELTQDPAVSVALGQTVRITCPGGGIYAGRYYGYGWFQQKPGQAPVTVIYSNDKRPSDIPSRFSGSASGSTASLTITGAQAEDEADYYCGSHDSNVGVFGGGTKLTVL"
result = 3.3


Continue with the binder presented below.
If you can, please state the reported IC50 value of HuDD2 VH A67F mutant (antibody, IgG1, name in Kabat numbering, V domains shown, IgG1/λ as HuDD2) VH: EVQLVESGGGLVQPGGSLRLSCAASGFDFSNYQLQWVRQAPGKGLEWVGGIGSSGSSTYYGAAVKGRFTISRDNAKNSVYLQMNSLRAEDTAVYYCTRGVSPYSCWYAGRTSYTCHAYTAGSIDAWGQGTLVTVSS VL: SSELTQDPAVSVALGQTVRITCPGGGIYAGRYYGYGWFQQKPGQAPVTVIYSNDKRPSDIPSRFSGSASGSTASLTITGAQAEDEADYYCGSHDSNVGVFGGGTKLTVL . 2.1
